Below is a list of entries, each paired with its recorded growth AUC value.
Tested on: Roseburia intestinalis
Assay: growth AUC relative to DMSO control (median of replicates) (fraction); higher = more growth (less inhibition), active = hit call of the paper
Conditions: 20 µM; 24 h
Keep it simple and answer with nothing but the number.

Known growth AUC results, listed for orientation:
Molecule	growth AUC
CO/N=C(/C(=O)O)c1ccccc1CO/N=C(\C)c1cccc(C(F)(F)F)c1	1.01
CCCN(CCOc1c(Cl)cc(Cl)cc1Cl)C(=O)NC=O	0.979
CNC(=O)/C(=N/OC)c1ccccc1COc1cc(C(=O)O)ccc1C	0.996
COC(=O)COc1ccc(Cl)cc1C	0.975
CCOC(=O)[C@@H](C)Oc1ccc(Oc2nc3ccc(Cl)cc3o2)cc1	0.975

Give its growth AUC value. Item: Cn1cc(C(=O)Nc2ccccc2-c2cc(F)c(F)c(F)c2)c(C(F)F)n1 0.997

Queued: COC1CCC2(CC1)NC(=O)C(c1cc(C)ccc1C)C2O (configuration not stated) 0.974

Queued: CCOCN(C(=O)C(=O)O)c1c(C)cccc1CC 0.996
